So I've got a bunch of molecules here, and I need their Ki values.
Target: human Nox2 (Homo sapiens)
Construct: host or cells: T-REx-CHO (hNOX2 T-REx-CHO), tetracycline-induced; membrane fraction
Sequence (P04839 2-570 limits assumed): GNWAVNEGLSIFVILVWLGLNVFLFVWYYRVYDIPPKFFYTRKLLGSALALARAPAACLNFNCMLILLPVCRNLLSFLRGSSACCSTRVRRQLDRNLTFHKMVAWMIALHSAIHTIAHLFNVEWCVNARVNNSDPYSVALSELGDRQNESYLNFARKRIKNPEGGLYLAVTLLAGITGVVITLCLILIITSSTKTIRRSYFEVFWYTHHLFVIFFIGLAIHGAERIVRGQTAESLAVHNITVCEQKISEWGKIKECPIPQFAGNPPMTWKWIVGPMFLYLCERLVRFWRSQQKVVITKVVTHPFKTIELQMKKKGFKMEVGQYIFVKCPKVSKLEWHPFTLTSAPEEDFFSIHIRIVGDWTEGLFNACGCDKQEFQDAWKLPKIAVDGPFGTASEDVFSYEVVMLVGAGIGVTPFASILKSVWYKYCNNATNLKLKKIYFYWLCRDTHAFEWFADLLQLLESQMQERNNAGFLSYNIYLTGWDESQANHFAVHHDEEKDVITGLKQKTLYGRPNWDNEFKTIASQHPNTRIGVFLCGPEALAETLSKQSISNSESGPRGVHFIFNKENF
Sequence (P13498 2-195 partner limits assumed): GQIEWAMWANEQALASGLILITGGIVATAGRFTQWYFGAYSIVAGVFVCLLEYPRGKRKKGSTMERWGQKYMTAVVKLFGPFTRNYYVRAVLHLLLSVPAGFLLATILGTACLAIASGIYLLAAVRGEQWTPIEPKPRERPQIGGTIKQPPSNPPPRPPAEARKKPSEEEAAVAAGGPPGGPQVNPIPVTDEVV
Assay: ROS production by membranes expressing human Nox2, cell-free Amplex Red assay
Type: biochemical
Settings: cell-free membranes, Amplex Red; Cheng-Prusoff; average of at least three experiments in triplicate; read-out: Ki hNox2
Please reply with the bare figure in nM and do not write the unit itself.

IN: Could you share which Ki value was measured for `O=c1c2c(-c3ccc(Cl)cc3)n(Cc3cnccn3)c(=O)cc2[nH]n1-c1ccccc1Cl` ?
OUT: 720

IN: Next: `COc1ccccc1-n1[nH]c2cc(=O)n(Cc3cccnc3)c(-c3cc(Cl)ccc3F)c2c1=O`
OUT: 695

IN: Next: `COc1cc(Cn2c(C)c3c(=O)n(-c4ccccc4Cl)[nH]c3cc2=O)ccn1`
OUT: 715
